experimentDescription: Half life in Leptosphaeria maculans
Format: ADME, organism-based
conditionSummary: plenodomus lingam
quantityMeasured: half-life

Input CON1c2ccccc2C(=O)C12CN=C(SC)S2 (racemic) . Output half-life: < 6 h

* * *

experimentDescription: Half life in potato dextrose agar medium
Format: physicochemical
quantityMeasured: half-life (h)
Number in h, nothing else.

CNC(=S)SCc1c[nH]c2ccccc12 : 24

Please examine the following record next.
Input C=CCNC(=O)SCc1c[nH]c2ccccc12 [BRUSSALEXIN A] . Output half-life: 15
